biological target: M1 muscarinic receptor (Rattus norvegicus, UniProt P08482); experiment: M1 receptor binding ([^3 H]-pirenzepine); set-up: species or system rat (male Sprague-Dawley); conditions: Table 1; rat brain tissue, [^3 H]PZ 0.5 nM; read-out: ^3 H-Pirenzepine M1 IC50
Sequence (P08482 whole entry): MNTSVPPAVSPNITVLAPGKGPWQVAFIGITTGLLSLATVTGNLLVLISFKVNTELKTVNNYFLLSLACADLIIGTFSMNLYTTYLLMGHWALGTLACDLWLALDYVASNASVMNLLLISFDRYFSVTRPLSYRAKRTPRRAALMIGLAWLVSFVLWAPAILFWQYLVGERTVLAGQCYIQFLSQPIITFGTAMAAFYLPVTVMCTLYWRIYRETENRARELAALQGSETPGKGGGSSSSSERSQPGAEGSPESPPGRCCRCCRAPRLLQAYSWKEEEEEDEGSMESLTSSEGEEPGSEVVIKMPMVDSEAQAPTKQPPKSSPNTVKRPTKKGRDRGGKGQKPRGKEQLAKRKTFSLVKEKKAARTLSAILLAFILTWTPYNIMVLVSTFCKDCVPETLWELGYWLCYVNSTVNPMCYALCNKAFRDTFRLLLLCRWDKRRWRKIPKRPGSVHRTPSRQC
pIC50: −log10 of the molar value.
molecules and their reported pIC50
measurement type: pIC50

[[record]]
molecule = "Cc1cc(NCCCN2CCOCC2)nc2ccccc12 [Example 1, hydrate]"
endpoint_result = 5.92

[[record]]
molecule = "Cc1cc(NCCCN2CCCC2=O)nc2ccccc12 [Example 7, hydrate]"
endpoint_result = 5.89

[[record]]
molecule = "Cc1cc(NCCCN(C)C)nc2ccccc12.O=C(O)/C=C/C(=O)O.O=C(O)/C=C/C(=O)O"
endpoint_result = 6.09

[[record]]
molecule = "Cl.Cl.c1ccc2nc(NCCCN3CCOCC3)ccc2c1 [Example 2, dihydrochloride]"
endpoint_result = 5.60

[[record]]
molecule = "Cc1cc(NCCN2CCOCC2)nc2ccccc12 [Example 5, hydrate]"
endpoint_result = 5.01

[[record]]
molecule = "c1ccc2c(C3CCCCC3)cc(NCCCN3CCOCC3)nc2c1 [Example 10, hydrate]"
endpoint_result = 5.64

[[record]]
molecule = "Cc1cc(NCCCCN2CCOCC2)nc2ccccc12"
endpoint_result = 6.27

[[record]]
molecule = "Cc1cc(NCCCN2CCN(C)CC2)nc2ccccc12 [Example 3, hemihydrate]"
endpoint_result = 6.22


These entries and their values trace back to patent US5770734A.
